Origin of values: ChEMBL document CHEMBL3593170

Consider the following molecules and their measured pEC50 readings.
molecular target: Transient receptor potential cation channel subfamily V member 1 (Homo sapiens, UniProt Q8NER1); assay: Activation of human TRPV1 expressed in TREx-HEK cells by Fluo-4 AM dye-based Ca2+ imaging assay; type: cell-based; conditions: read-out: EC50
Sequence (Q8NER1 whole entry): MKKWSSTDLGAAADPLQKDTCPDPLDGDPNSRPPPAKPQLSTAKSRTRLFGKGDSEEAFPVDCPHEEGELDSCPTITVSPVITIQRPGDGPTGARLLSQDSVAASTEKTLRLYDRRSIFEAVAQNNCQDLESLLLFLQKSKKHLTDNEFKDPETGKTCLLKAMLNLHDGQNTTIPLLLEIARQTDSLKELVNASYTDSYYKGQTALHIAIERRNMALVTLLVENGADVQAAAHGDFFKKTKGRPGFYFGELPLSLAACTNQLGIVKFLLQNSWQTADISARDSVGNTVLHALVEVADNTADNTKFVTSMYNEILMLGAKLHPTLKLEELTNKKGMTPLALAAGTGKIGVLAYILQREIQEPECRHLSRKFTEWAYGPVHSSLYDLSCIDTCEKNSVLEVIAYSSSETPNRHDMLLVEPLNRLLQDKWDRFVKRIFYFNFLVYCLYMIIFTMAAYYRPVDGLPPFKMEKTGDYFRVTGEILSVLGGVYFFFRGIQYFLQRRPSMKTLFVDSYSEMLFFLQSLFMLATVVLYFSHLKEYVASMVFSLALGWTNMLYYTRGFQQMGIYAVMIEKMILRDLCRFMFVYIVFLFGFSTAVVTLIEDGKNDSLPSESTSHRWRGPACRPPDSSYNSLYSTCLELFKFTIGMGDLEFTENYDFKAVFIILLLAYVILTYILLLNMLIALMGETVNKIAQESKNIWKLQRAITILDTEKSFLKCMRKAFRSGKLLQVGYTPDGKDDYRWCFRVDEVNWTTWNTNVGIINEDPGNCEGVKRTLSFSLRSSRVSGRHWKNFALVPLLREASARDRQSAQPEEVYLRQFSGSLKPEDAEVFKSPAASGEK
# reply with the number alone; pEC50 is -log10 of concentration in mol/L

[
  {
    "molecule": "S=C=NCc1ccccc1 [BENZYL ISOTHIOCYANATE]",
    "pEC50": 3.65
  },
  {
    "molecule": "Oc1ccc(CN=C=S)cc1",
    "pEC50": 3.77
  },
  {
    "molecule": "S=C=NCCc1ccccc1 [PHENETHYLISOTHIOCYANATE]",
    "pEC50": 3.74
  },
  {
    "molecule": "C=CCN=C=S [ALLYL ISOTHIOCYANATE]",
    "pEC50": 3.80
  },
  {
    "molecule": "CC(C)N=C=S [ISOPROPYL ISOTHIOCYANATE]",
    "pEC50": 4.00
  }
]

Moving on to another molecule below.
Qu. Identify measured pEC50 associated with CCC(C)N=C=S (stereo unspecified)
Ans. 4.00

----------
target: UniProt:Q8NER1; experiment: Activation of human TRPV1 expressed in TREx-HEK cells at 300 uM by Fluo-4 AM dye-based Ca2+ imaging assay; type: cell-based
Calls of active or inactive are those of the source. No cut-off for these calls is given here.
Return exactly one item of active, inactive

Answered cases to consult:
[
  {
    "compound": "CSCCCCCN=C=S",
    "labelClass": "inactive"
  },
  {
    "compound": "S=C=NCc1ccccc1 [BENZYL ISOTHIOCYANATE]",
    "labelClass": "active"
  }
]

Qu. Hello, I am checking results. What call was entered for C=CCN=C=S [ALLYL ISOTHIOCYANATE] ?
Ans. active

Qu. Hello, I am checking results. What call was entered for C=CCCCCN=C=S ?
Ans. inactive

Qu. Hello, I am checking results. What call was entered for S=C=NCCc1ccccc1 [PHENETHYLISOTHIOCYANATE] ?
Ans. active

Qu. Hello, I am checking results. What call was entered for CSCCCCCCN=C=S ?
Ans. inactive

Qu. Hello, I am checking results. What call was entered for CSCCCCCCCN=C=S ?
Ans. inactive

Qu. Hello, I am checking results. What call was entered for CCC(C)N=C=S (stereo not drawn) ?
Ans. active

----------
molecular target: Transient receptor potential cation channel subfamily V member 1 (Homo sapiens, UniProt Q8NER1); assay: Activation of human TRPV1 expressed in TREx-HEK cells at 300 uM by Fluo-4 AM dye-based Ca2+ imaging assay; format: cell-based
Calls of active or inactive are those of the source. The rule behind the calls is not given here.
Return exactly one item of t = active, f = inactive

Answered cases to consult:
[
  {
    "compound": "CC(C)N=C=S [ISOPROPYL ISOTHIOCYANATE]",
    "labelClass": "t"
  },
  {
    "compound": "CSCCCN=C=S",
    "labelClass": "f"
  },
  {
    "compound": "Oc1ccc(CN=C=S)cc1",
    "labelClass": "t"
  },
  {
    "compound": "C=CCCCCCN=C=S",
    "labelClass": "f"
  },
  {
    "compound": "C=CCCCN=C=S",
    "labelClass": "f"
  }
]

Kindly consider the entry below.
Qu. Hello, I am checking results. What call was entered for C=CCCN=C=S ?
Ans. f

----------
molecular target: UniProt Q8NER1; experiment: Activation of human TRPV1 expressed in TREx-HEK cells by Fluo-4 AM dye-based Ca2+ imaging assay relative to 10 uM capsaicin; assay type: cell-based
The source made the active and inactive calls. The rule behind the calls is not given here.
observedProperty: max activation

Example compounds with recorded max activation:
[
  {
    "compound": "CSCCCCCCCN=C=S",
    "max activation": "inactive"
  },
  {
    "compound": "C=CCCN=C=S",
    "max activation": "inactive"
  },
  {
    "compound": "C=CCCCCCN=C=S",
    "max activation": "inactive"
  },
  {
    "compound": "CSCCCCCN=C=S",
    "max activation": "inactive"
  },
  {
    "compound": "CC(C)N=C=S [ISOPROPYL ISOTHIOCYANATE]",
    "max activation": "50%"
  }
]

Qu. Find max activation for C=CCN=C=S [ALLYL ISOTHIOCYANATE] on UniProt Q8NER1 and write it down.
Ans. 25%

Qu. Find max activation for CSCCCN=C=S on UniProt Q8NER1 and write it down.
Ans. inactive

Qu. Find max activation for S=C=NCCc1ccccc1 [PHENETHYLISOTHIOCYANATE] on UniProt Q8NER1 and write it down.
Ans. 43%

Qu. Find max activation for C=CCCCCN=C=S on UniProt Q8NER1 and write it down.
Ans. inactive

Qu. Find max activation for CCC(C)N=C=S (stereo not given) on UniProt Q8NER1 and write it down.
Ans. 62%

Qu. Find max activation for CC(C)CN=C=S on UniProt Q8NER1 and write it down.
Ans. inactive

Qu. Find max activation for Oc1ccc(CN=C=S)cc1 on UniProt Q8NER1 and write it down.
Ans. 63%

----------
target: Transient receptor potential cation channel subfamily A member 1 (Homo sapiens, UniProt O75762); assay: Activation of human TRPA1 expressed in TREx-HEK cells by Fluo-4 AM dye-based Ca2+ imaging assay
Sequence (O75762 whole entry): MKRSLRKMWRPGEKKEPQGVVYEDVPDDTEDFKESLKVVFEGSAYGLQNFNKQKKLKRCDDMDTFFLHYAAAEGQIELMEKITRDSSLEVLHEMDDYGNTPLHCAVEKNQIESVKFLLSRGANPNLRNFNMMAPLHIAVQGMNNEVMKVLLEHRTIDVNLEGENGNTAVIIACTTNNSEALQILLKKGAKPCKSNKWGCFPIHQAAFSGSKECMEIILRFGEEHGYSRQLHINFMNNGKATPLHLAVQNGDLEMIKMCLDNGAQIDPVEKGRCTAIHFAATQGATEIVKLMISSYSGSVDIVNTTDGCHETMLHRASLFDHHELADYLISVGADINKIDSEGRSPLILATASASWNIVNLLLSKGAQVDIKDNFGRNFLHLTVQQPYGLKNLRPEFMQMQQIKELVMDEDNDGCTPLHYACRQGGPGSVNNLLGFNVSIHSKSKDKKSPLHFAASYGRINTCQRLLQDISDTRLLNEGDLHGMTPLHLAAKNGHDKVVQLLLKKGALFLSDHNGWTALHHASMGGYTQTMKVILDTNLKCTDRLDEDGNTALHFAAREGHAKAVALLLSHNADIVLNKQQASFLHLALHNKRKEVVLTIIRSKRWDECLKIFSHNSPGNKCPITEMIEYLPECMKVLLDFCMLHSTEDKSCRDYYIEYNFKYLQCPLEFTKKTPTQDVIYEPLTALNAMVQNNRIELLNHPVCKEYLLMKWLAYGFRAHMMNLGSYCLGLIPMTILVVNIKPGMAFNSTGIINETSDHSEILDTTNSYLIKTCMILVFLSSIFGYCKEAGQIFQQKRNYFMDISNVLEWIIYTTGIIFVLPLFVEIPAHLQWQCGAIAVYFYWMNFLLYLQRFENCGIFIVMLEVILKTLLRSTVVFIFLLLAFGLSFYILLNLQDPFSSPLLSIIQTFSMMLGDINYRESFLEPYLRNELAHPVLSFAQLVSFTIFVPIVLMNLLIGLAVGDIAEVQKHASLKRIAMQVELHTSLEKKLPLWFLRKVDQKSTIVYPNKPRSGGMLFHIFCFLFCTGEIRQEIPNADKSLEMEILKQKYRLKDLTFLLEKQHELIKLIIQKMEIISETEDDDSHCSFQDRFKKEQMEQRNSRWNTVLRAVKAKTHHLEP
observedProperty: pEC50
# reply with the number alone; pEC50 is -log10 of concentration in mol/L

Example compounds with recorded pEC50:
[
  {
    "compound": "CC(C)N=C=S [ISOPROPYL ISOTHIOCYANATE]",
    "pEC50": 6.28
  },
  {
    "compound": "S=C=NCc1ccccc1 [BENZYL ISOTHIOCYANATE]",
    "pEC50": 6.60
  },
  {
    "compound": "CSCCCCCCN=C=S",
    "pEC50": 6.24
  },
  {
    "compound": "C=CCCCN=C=S",
    "pEC50": 6.27
  },
  {
    "compound": "CC(C)CN=C=S",
    "pEC50": 6.16
  }
]

Moving on to another compound below.
Qu. Identify measured pEC50 associated with CSCCCCCN=C=S
Ans. 6.30

----------
target: UniProt:O75762; assay: Activation of human TRPA1 expressed in TREx-HEK cells by Fluo-4 AM dye-based Ca2+ imaging assay relative to 100 uM ITC; format: cell-based
observedProperty: max activation (%)
Supply the numeric figure in %, leaving out any unit text.

Example compounds with recorded max activation:
[
  {
    "compound": "S=C=NCCc1ccccc1 [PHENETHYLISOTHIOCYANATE]",
    "systemName": "UniProt:O75762",
    "max activation (%)": 94
  },
  {
    "compound": "C=CCN=C=S [ALLYL ISOTHIOCYANATE]",
    "systemName": "UniProt:O75762",
    "max activation (%)": 97
  },
  {
    "compound": "CSCCCCCCN=C=S",
    "systemName": "UniProt:O75762",
    "max activation (%)": 92
  },
  {
    "compound": "Oc1ccc(CN=C=S)cc1",
    "systemName": "UniProt:O75762",
    "max activation (%)": 96
  },
  {
    "compound": "C=CCCCN=C=S",
    "systemName": "UniProt:O75762",
    "max activation (%)": 90
  }
]

Qu. Find max activation for C=CCCCCN=C=S on UniProt:O75762 and write it down.
Ans. 93

----------
biological target: UniProt:O75762; assay: Activation of human TRPA1 expressed in TREx-HEK cells by Fluo-4 AM dye-based Ca2+ imaging assay relative to 100 uM ITC; format: cell-based
observedProperty: max activation

Example molecules with recorded max activation:
[
  {
    "molecule": "C=CCCCCCN=C=S",
    "systemName": "UniProt:O75762",
    "max activation": "90%"
  },
  {
    "molecule": "CSCCCCCCCN=C=S",
    "systemName": "UniProt:O75762",
    "max activation": "90%"
  }
]

Qu. Identify measured max activation associated with CC(C)CN=C=S
Ans. 89%

Qu. Identify measured max activation associated with CCC(C)N=C=S (stereo not given)
Ans. 88%

Qu. Identify measured max activation associated with CSCCCCCN=C=S
Ans. 92%

----------
target: Transient receptor potential cation channel subfamily V member 1 (Homo sapiens, UniProt Q8NER1); test: Activation of human TRPV1 expressed in TREx-HEK cells by Fluo-4 AM dye-based Ca2+ imaging assay relative to 10 uM capsaicin; assay type: cell-based
Active and inactive are the calls of the source. The calls are words filed in the database; no cut-off is given here.
observedProperty: max activation

[
  {
    "compound": "C=CCCCN=C=S",
    "measurement": "inactive"
  },
  {
    "compound": "S=C=NCc1ccccc1 [BENZYL ISOTHIOCYANATE]",
    "measurement": "49%"
  },
  {
    "compound": "CSCCCCCCN=C=S",
    "measurement": "inactive"
  }
]
